Assay: Cmax in C57BL/6 mouse at 25 mg/kg, po administered in 5% Tween-80
Type: ADME, organism-based
Parameters: dose 25 mg/kg, route oral
Conditions: in vivo
RECORDED ENDPOINT: Cmax (µM)
Numeric answer only, unit µM assumed.

# input For the compound O=C(O)c1cc(-c2ccsc2)c2ccc(-c3ccc(OC(F)(F)F)cc3)cc2c1 , what Cmax is on record?
# output 18

----------
System: Mus musculus
Experiment: Drug metabolism in Mrp2 (-/-) mouse assessed as (2S,3S,4S,5R,6S)-6-(7-(4-fluoro-2,6-dimethylbenzyloxy)-4-(thiophen-3-yl)-2-naphthoyloxy)-3,4,5-trihydroxytetrahydro-2H-pyran-2-carboxylic acid recovery in bile at 2 mg/kg, po up to 24 hrs
Settings: in vivo
RECORDED ENDPOINT: Activity

# input So what's the measured Activity for this one? Cc1cc(F)cc(C)c1COc1ccc2c(-c3ccsc3)cc(C(=O)O)cc2c1
# output > 99%

----------
Experiment: Cmax in C57BL/6 mouse at 50 mg/kg, po administered in 5% Tween-80
Assay type: ADME, organism-based
Design: dose 50 mg/kg, route oral
Details: in vivo
RECORDED ENDPOINT: Cmax (µM)
Quick note: give the figure in µM, leave out the unit.

Recorded results for 5 compounds are shown here.
>>> reported_result("O=C(O)c1cc2cc(-c3ccc(OC(F)(F)F)cc3)ccc2c(-c2ccsc2)c1O")
34
>>> reported_result("O=C(O)c1cc2cc(-c3ccc(OC(F)(F)F)cc3)ccc2c(-c2ccsc2)c1F")
89
>>> reported_result("O=C(O)c1cc(-c2cscc2C(O)(C(F)(F)F)C(F)(F)F)c2ccc(-c3ccc(OC(F)(F)F)cc3)cc2c1")
37
>>> reported_result("O=C(O)c1cc(-c2ccc([C@@H](O)C(F)F)cc2)c2ccc(-c3ccc(C(F)(F)F)cc3)cc2c1")
113
>>> reported_result("Cc1cc(F)cc(C)c1COc1ccc2c(-c3ccsc3)cc(C(=O)O)cc2c1")
23

# next compound below
# input Dear colleague, I am looking for the recorded Cmax of the following compound: CS(=O)(=O)c1cscc1-c1cc(C(=O)O)cc2cc(-c3ccc(OC(F)(F)F)cc3)ccc12
# output 16

Origin of measurements: ChEMBL document CHEMBL1773017
